- study target: T1, HLA-DP402 (HLA-DPB1*04:02) (human, UniProt P20036 29-222)
- T1 construct: mature; purified from homozygous EBV-transformed lymphoblastoid cells with antibody B7/21
- run description: competition ELISA vs biotin-Oxy 271-287
No end group written: not given here.
readout: relative affinity

INSERT INTO measurements (binder, readout, reported_result) VALUES
  ('NSALVQDLAKAVAKV-NH2 [CCNB1 419-433]', 'relative affinity', 148),
  ('AKISTLPQLNSALVQ-NH2 [CCNB1 410-424]', 'relative affinity', 1120),
  ('AKYLMELTMLDYDMV-NH2 [CCNB1 323-337]', 'relative affinity', 6);
